studyTarget: Voltage-gated inwardly rectifying potassium channel KCNH2 (Homo sapiens)
measurementDescription: qHTS Assay for Small Molecule Inhibitors of the Human hERG Channel Activity (AID 588834);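 also: lower thallium flux fluorescence means stronger hERG block; nearly all actives have a fitted effect of over 50% in size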
runParameters: U2OS BacMam hERG, FluxOR thallium flux fluorescence; series mostly up to 46.1 µM
Results filed as inconclusive are left out. The source made the active and inactive calls. Calls follow the shape of the dose curve; as a rule, active = well fitted inhibition curve with a large enough effect; inconclusive = small, poorly fitted or top-dose-only effect; inactive = flat fitted curve, though single readings scatter.
Classes used: active, inactive

INSERT INTO measurements (compound, assignedlabel) VALUES
  ('C[C@]12CC[C@H]3[C@@H](CC=C4C[C@@H](O)CC[C@@]43C)[C@@H]1CC[C@@H]2O', 'inactive'),
  ('O=C(CCl)c1ccc(Cl)cc1Cl', 'inactive'),
  ('Clc1ccc(C(OCCN2CCCCC2)c2ccccc2)cc1 (centres undefined)', 'active'),
  ('CCNc1nc(Cl)nc(NCC)n1', 'inactive'),
  ('C#C[C@]1(O)CC[C@H]2[C@@H]3CCC4=CC(=O)CCC4=C3C=C[C@@]21CC', 'inactive'),
  ('CCOC(=O)c1cncn1C(C)c1ccccc1 (centres undefined)', 'inactive'),
  ('CCN(Cc1ccc(Cl)nc1)/C(=C/[N+](=O)[O-])NC', 'inactive'),
  ('Cc1ncc2n1-c1ccc(Cl)cc1C(c1ccccc1F)=NC2', 'inactive'),
  ('CCC1(CC)C(=O)NC(=O)NC1=O', 'inactive'),
  ('C[C@@H]1CC[C@H]2[C@@H](C)C(=O)O[C@@H]3O[C@@]4(C)CC[C@@H]1[C@]32OO4', 'inactive'),
  ('CC(C)[N+](C)(CCC(C(N)=O)(c1ccccc1)c1ccccc1)C(C)C', 'inactive'),
  ('C[C@]12C=CC(=O)C=C1CC[C@@H]1[C@@H]2CC[C@@]2(C)[C@H]1CC[C@]2(C)O', 'inactive'),
  ('C=CCN1CC[C@]23CCCC[C@H]2[C@H]1Cc1ccc(O)cc13', 'inactive'),
  ('COP(=S)(OC)Oc1ccc(Sc2ccc(OP(=S)(OC)OC)cc2)cc1', 'inactive'),
  ('CCN(CC)CCOC(=O)C(C)(c1ccccc1)c1ccccc1', 'active'),
  ('COP(=O)(OC)C(O)C(Cl)(Cl)Cl (centres undefined)', 'inactive'),
  ('CC[C@]1(O)CC[C@H]2[C@@H]3CCC4=CCCC[C@@H]4[C@H]3CC[C@@]21C', 'inactive'),
  ('NC(=O)CN1CCCC1=O', 'inactive'),
  ('c1ccc2nc(N3CCNCC3)ccc2c1', 'inactive'),
  ('Nc1ccc(N)cc1', 'inactive'),
  ('O=C(NC(=O)c1c(F)cccc1F)Nc1cc(Cl)c(OC(F)(F)C(F)C(F)(F)F)cc1Cl (centres undefined)', 'inactive'),
  ('N#Cc1nn(-c2c(Cl)cc(C(F)(F)F)cc2Cl)c(N)c1S(=O)C(F)(F)F (centres undefined)', 'inactive'),
  ('O=c1n(Cl)c(=O)n(Cl)c(=O)n1Cl', 'inactive'),
  ('COc1ccc(C(=O)N2CCCC2=O)cc1', 'inactive');

###

measurementDescription: Primary qHTS for inhibitors of nuclear receptor binding SET domain protein 2 (NSD2) in an RCH-ACV wild type WT cells (2C) (AID 1645877); also: nearly all actives have a fitted effect of over 70% in size; also: potency is read from the fitted curve at half-maximal effect
runParameters: RCH-ACV (leukaemia line) NSD2 WT (2C) viability, CellTiter-Glo, 72 h; series mostly up to 44.9 µM
Results filed as inconclusive are left out. Active and inactive are the calls of the source. Calls follow the shape of the dose curve; as a rule, active = well fitted inhibition curve with a large enough effect; inconclusive = small, poorly fitted or top-dose-only effect; inactive = no such curve, though single readings can be large or run the other way.
outcomeMeasure: Potency

INSERT INTO results (molecule, result) VALUES
  ('NC1(c2ccccc2)CCCCC1', '24.1 µM (active)'),
  ('CCNc1nc(Cl)nc(NCC)n1', 'inactive'),
  ('CCO[C@H]1O[C@@H]2OC3(C)CC[C@H]4[C@H](C)CC[C@@H]([C@H]1C)[C@@]24OO3', '3.35 µM (active)'),
  ('CN1C[C@@H](NS(=O)(=O)N(C)C)C[C@@H]2c3cccc4c3c(cn4C)C[C@H]21', 'inactive'),
  ('C[C@]12CC[C@H]3[C@@H](CCC4=CC(=O)CC[C@@]43C)[C@@H]1CC[C@@H]2C(=O)O', 'inactive'),
  ('C[N+]1(CCC(C(N)=O)(c2ccccc2)c2ccccc2)CCCCC1', 'inactive');
